Hey, just so you know, these numbers are from ChEMBL document CHEMBL4483862.

System: Plasmodium berghei
procedure-details: Luciferase/luciferin-expressing antifolate-resistant parasites were used to infect a culture of HepG2 cells that were pre-incubated with compounds. Infected hepatocytes emit light due to the luciferase reaction. Assay results are presented as the percent inhibition of light emission compared to control. […]
Format: functional
cond: sporozoite, HEPG2TOX_HILL_SLOPE 9.16, HEPG2TOX_R_SQUARED 0.911, PBLUC_HILL_SLOPE 3.79, PBLUC_R_SQUARED 0.1, read-out: LUCIFERASE INFECTION ASSAY - IC50
pIC50: −log10 of the molar value.
measurement-kind: pIC50

# structure-as-smiles, reported-measurement
measured = [
    ("COc1cc(/C=C(/C(=O)c2cccs2)c2nc3ccccc3[nH]2)cc(OC)c1O", 5.13),
]

* * *

Tested on: Plasmodium berghei
procedure-details: Luciferase/luciferin-expressing antifolate-resistant parasites were used to infect a culture of HepG2 cells that were pre-incubated with compounds. Infected hepatocytes emit light due to the luciferase reaction. Assay results are presented as the percent inhibition of light emission compared to control. […]
Assay type: functional
cond: sporozoite, FFLUC_HILL_SLOPE 2.07, FFLUC_R_SQUARED 0.755, PBLUC_HILL_SLOPE 3.07, PBLUC_R_SQUARED 0.285, read-out: LUCIFERASE INFECTION ASSAY - IC50

# structure-as-smiles, assayed-target, IC50 (µM)
rows = [
    ("CCOc1ccc(NC(=O)c2ccccc2NC(=O)COC(=O)/C(=C/c2cc(OC)c(OC)c(OC)c2)c2ccc(-c3ccccc3)cc2)cc1", "Plasmodium berghei", 6.17),
]

* * *

Test system: Plasmodium berghei
procedure-details: Luciferase/luciferin-expressing antifolate-resistant parasites were used to infect a culture of HepG2 cells that were pre-incubated with compounds. Infected hepatocytes emit light due to the luciferase reaction. Assay results are presented as the percent inhibition of light emission compared to control. […]
Type: functional
cond: sporozoite, HEPG2TOX_HILL_SLOPE 0.914, HEPG2TOX_R_SQUARED 0.945, PBLUC_HILL_SLOPE 1.42, PBLUC_R_SQUARED 0.804, read-out: LUCIFERASE INFECTION ASSAY - IC50

# structure-as-smiles, IC50
measured = [
    ("Cc1ccc(O)c(C(=O)c2cnc3cc4c(cc3c2)OCCO4)c1", "172 nM"),
]

* * *

Test system: Plasmodium berghei
procedure-details: Luciferase/luciferin-expressing antifolate-resistant parasites were used to infect a culture of HepG2 cells that were pre-incubated with compounds. Infected hepatocytes emit light due to the luciferase reaction. Assay results are presented as the percent inhibition of light emission compared to control. […]
Assay type: functional
cond: sporozoite, read-out: LUCIFERASE INFECTION ASSAY - IC90
IC90 reference
measurement-kind: IC90 (µM)

# structure-as-smiles, measurement-kind, censor-symbol, reported-measurement
measured = [
    ("O=C(Nc1cc(Cl)sc1Cl)Oc1cccnc1", "IC90", "=", 10.6),
    ("Cc1c(C(=O)Nc2ccc(Oc3ccccc3)cc2)[nH]c2c1C(=O)CCC2", "IC90", ">", 10),
    ("O=C(N/N=C/c1c(Cl)nc2ccccn2c1=O)c1ccc(F)cc1", "IC90", ">", 10),
    ("COc1ccc(CN2CCCN(C(=O)c3ccc(CSc4nc5ccccc5[nH]4)cc3)CC2)cc1", "IC90", ">", 10),
    ("N#C/C(=N\\Nc1ccc(F)c(Cl)c1)C(=O)c1ccc(Cl)cc1", "IC90", "=", 1.26),
    ("Fc1cccc(-c2cc3c(Nc4ccc5c(c4)OCCO5)nccc3[nH]2)c1", "IC90", "=", 7.25),
]
